Tested on: Staphylococcus aureus 209P JC-1
Assay: MIC in agar plate culture-dilution assay
Type: cell-based
Details: Staphylococcus aureus 209P JC-1; agar plate culture-dilution; read-out: MIC
measurement-type: MIC (µg/mL)
One number for each entry, in µg/mL.

{"compound": "C[n+]1cccc(SCC2=C(C(=O)[O-])N3C(=O)[C@@H](NC(=O)C(NC(=O)c4cc(=O)c(O)cn4O)c4csc(N)n4)[C@H]3SC2)c1 (stereo partly drawn)", "unit-string": "µg/mL", "MIC": 3.13}

Please look at the items below and tell me MIC for each one, in order.
1. Nc1nc(C(NC(=O)c2cc(=O)c(O)cn2O)C(=O)N[C@@H]2C(=O)N3C(C(=O)O)=C(CSc4cnns4)CS[C@H]23)cs1 (stereo partly drawn)
2. Nc1nc(C(NC(=O)c2cc(=O)c(O)cn2O)C(=O)N[C@@H]2C(=O)N3C(C(=O)O)=C(CSc4nc5ccccc5s4)CS[C@H]23)cs1 (stereo partly drawn)

3.13
3.13

* * *

Tested on: Pseudomonas aeruginosa IAM-1007
Experiment: MIC in agar plate culture-dilution assay
Type: cell-based
Settings: IAM1007; Pseudomonas aeruginosa IAM-1007; agar plate culture-dilution; read-out: MIC
Exercise: for every item that follows, state its recorded MIC.
One number for each entry, in µg/mL.

Answered examples (2):
{"compound": "Nc1nc(C(NC(=O)c2cc(=O)c(O)cn2O)C(=O)N[C@@H]2C(=O)N3C(C(=O)[O-])=C(CSc4cc[n+](CC(=O)O)c5c4CCC5)CS[C@H]23)cs1 (stereo partly drawn)", "data-value": 0.05}
{"compound": "Nc1nc(C(NC(=O)c2cc(=O)c(O)cn2O)C(=O)N[C@@H]2C(=O)N3C(C(=O)O)=C(CSc4nc5ccccc5s4)CS[C@H]23)cs1 (stereo partly drawn)", "data-value": 0.2}

Please look at the items below and tell me MIC for each one, in order.
1. C[n+]1cccc(SCC2=C(C(=O)[O-])N3C(=O)[C@@H](NC(=O)C(NC(=O)c4cc(=O)c(O)cn4O)c4csc(N)n4)[C@H]3SC2)c1 (stereo partly drawn)
2. C[n+]1ccc(SCC2=C(C(=O)[O-])N3C(=O)[C@@H](NC(=O)C(NC(=O)c4cc(=O)c(O)c[nH]4)c4csc(N)n4)[C@H]3SC2)cc1 (stereo partly drawn) [A, reference compound]
3. Nc1nc(C(NC(=O)c2cc(=O)c(O)cn2O)C(=O)N[C@@H]2C(=O)N3C(C(=O)O)=C(CSc4ccnc5c4CCC5)CS[C@H]23)cs1 (stereo partly drawn)
4. Nc1nc(C(NC(=O)c2cc(=O)c(O)cn2O)C(=O)N[C@@H]2C(=O)N3C(C(=O)[O-])=C(CSc4cc[n+](CCO)cc4)CS[C@H]23)cs1 (stereo partly drawn)
5. Nc1nc(C(NC(=O)c2cc(=O)c(O)cn2O)C(=O)N[C@@H]2C(=O)N3C(C(=O)[O-])=C(CSc4cc[n+](C5CC5)cc4)CS[C@H]23)cs1 (stereo partly drawn)
6. Cn1c(SCC2=C(C(=O)O)N3C(=O)[C@@H](NC(=O)C(NC(=O)c4cc(=O)c(O)cn4O)c4csc(N)n4)[C@H]3SC2)nnc(O)c1=O (stereo partly drawn)
7. Nc1nc(C(NC(=O)c2cc(=O)c(O)cn2O)C(=O)N[C@@H]2C(=O)N3C(C(=O)O)=C(CSc4cnns4)CS[C@H]23)cs1 (stereo partly drawn)

[0.2, 6.25, 0.2, 0.1, 0.2, 0.39, 0.1]

Which value of MIC has been reported for NC(=O)C[n+]1ccc(SCC2=C(C(=O)[O-])N3C(=O)[C@@H](NC(=O)C(NC(=O)c4cc(=O)c(O)cn4O)c4csc(N)n4)[C@H]3SC2)cc1 (stereo partly drawn) in the records?
0.1
